- Tested on: LPS-stimulated RAW264.7 cells
- Assay protocol: NO release inhibition in LPS-stimulated RAW264.7 cells (Griess reagent)
- Assay type: cell-based
- Measurement conditions: Mus musculus; LPS-stimulated RAW264.7 cells; Griess Reagent
- Experimental: After incubated for 24 hours, cells were treated with tested compounds for different concentrations(3.125,6.25,12.5,25 and 50μM) for 1 h, and then treated with 1 μg/mL LPS for further 24 h. The supernatants were collected and NO level was measured using Griess reagent (Beyotime, China). […]
# IC50 per record follows
Measured parameter: IC50

# Substance smiles, Val
records = [
    ("COc1ccc(-c2cnc(N)c(C(=O)Nc3ccc(NC(C)=O)cc3)c2)cc1", "> 50 µM"),
    ("CCc1ccc(-c2cnc(N)c(C(=O)Nc3ccc(C)cc3)c2)cc1", "26.7 µM"),
    ("CCc1ccc(-c2cnc(N)c(C(=O)Nc3ccc(NC(C)=O)cc3)c2)cc1", "10.2 µM"),
    ("CC(=O)Nc1ccc(NC(=O)c2cc(-c3cccc(C(F)(F)F)c3)cnc2N)cc1", "8.4 µM"),
    ("CC(=O)Nc1ccc(NC(=O)c2cc(-c3cccc(F)c3)cnc2N)cc1", "> 50 µM"),
]

====

- Test system: LPS-stimulated RAW264.7 cells
- Assay protocol: NO release inhibition in LPS-stimulated RAW264.7 cells (Griess reagent)
- Type: cell-based
- Measurement conditions: Mus musculus; LPS-stimulated RAW264.7 cells; Griess Reagent
pIC50: −log10 of the molar value.
# pIC50 per record follows

# Compound, Relation operator, pIC50
measured = [
    ("CC(=O)Nc1ccc(NC(=O)c2cc(-c3ccc(C=O)c(C)c3)cnc2N)cc1 [Compound 49]", "<", 4.30),
    ("CC(=O)Nc1ccc(NC(=O)c2cc(-c3cccc(O)c3)cnc2N)cc1 [Compound 44]", "<", 4.30),
    ("CCc1ccc(-c2cnc(N)c(C(=O)Nc3ccccc3N)c2)cc1 [Compound 12]", "=", 6.05),
    ("COc1ccccc1-c1cnc(N)c(C(=O)Nc2ccc(NC(C)=O)cc2)c1 [Compound 33]", "<", 4.30),
    ("CCc1ccc(-c2cnc(N)c(C(=O)Nc3ccccc3)c2)cc1 [Compound 6]", "=", 4.71),
    ("CC(=O)Nc1ccc(NC(=O)c2cc(-c3cccc(Cl)c3)cnc2N)cc1 [Compound 36]", "<", 4.30),
    ("CCc1ccc(-c2cnc(N)c(C(=O)Nc3ccc(OC)cc3)c2)cc1 [Compound 20]", "=", 4.66),
    ("CCc1ccc(-c2cnc(N)c(C(=O)Nc3cccc(NC(C)=O)c3)c2)cc1 [Compound 14]", "=", 5.49),
    ("CC(=O)Nc1ccc(NC(=O)c2cc(-c3ccccc3C#N)cnc2N)cc1 [Compound 48]", "<", 4.30),
]

====

- Test system: LPS-stimulated RAW264.7 cells
- Assay protocol: NO release inhibition in LPS-stimulated RAW264.7 cells (Griess reagent)
- Assay type: cell-based
- Measurement conditions: Mus musculus; LPS-stimulated RAW264.7 cells; Griess Reagent
pIC50: −log10 of the molar value.
# pIC50 per record follows
Measured parameter: pIC50

# Compound, Tested system, Measured parameter, Relation operator, Val
data = [
    ("CC(=O)Nc1ccc(NC(=O)c2cc(-c3cccc(C)c3)cnc2N)cc1 [Compound 29]", "LPS-stimulated RAW264.7 cells", "pIC50", "<", 4.30),
    ("CC(=O)Nc1ccc(NC(=O)c2cc(-c3ccc(C)cc3)cnc2N)cc1 [Compound 28]", "LPS-stimulated RAW264.7 cells", "pIC50", "=", 4.62),
    ("CC(=O)Nc1ccc(NC(=O)c2cc(-c3ccc(F)cc3)cnc2N)cc1 [Compound 38]", "LPS-stimulated RAW264.7 cells", "pIC50", "=", 4.86),
    ("Cc1ccc(S(=O)(=O)/C=C/C#N)cc1 [Bay11-7082, reference compound]", "LPS-stimulated RAW264.7 cells", "pIC50", "=", 5.68),
    ("CC(=O)Nc1ccc(NC(=O)c2cc(-c3ccccc3C(F)(F)F)cnc2N)cc1 [Compound 42]", "LPS-stimulated RAW264.7 cells", "pIC50", "=", 4.84),
    ("CCc1ccc(-c2cnc(N)c(C(=O)Nc3cccc(N)c3)c2)cc1 [Compound 11]", "LPS-stimulated RAW264.7 cells", "pIC50", "=", 5.77),
    ("CCc1ccc(NC(=O)c2cc(-c3ccc(CC)cc3)cnc2N)cc1 [Compound 19]", "LPS-stimulated RAW264.7 cells", "pIC50", "=", 4.55),
    ("CCc1ccc(-c2cnc(N)c(C(=O)Nc3ccccc3C)c2)cc1 [Compound 9]", "LPS-stimulated RAW264.7 cells", "pIC50", "=", 4.52),
    ("CCc1ccc(-c2cc(C(=O)Nc3ccc(NC(C)=O)cc3)cnc2N)cc1 [Compound 27]", "LPS-stimulated RAW264.7 cells", "pIC50", "=", 4.67),
]

====

- Tested on: NF-κB
- Assay protocol: NF-κB transcriptional activity dual-luciferase reporter assay, TNF-α stimulated
- Format: cell-based
- Measurement conditions: Homo sapiens, HEK-293T, HEK293T cells transfected with NF-κB reporter plasmid, stimulated by TNF-α
pIC50: −log10 of the molar value.
# pIC50 per record follows

# Molecule, Tested system, Relation operator, pIC50
rows = [
    ("CCc1ccc(-c2cnc(N)c(C(=O)Nc3ccccc3C)c2)cc1 [Compound 9]", "NF-κB", "<", 5.70),
    ("CC(=O)Nc1ccc(NC(=O)c2cc(-c3ccc(S(C)(=O)=O)cc3)cnc2N)cc1 [Compound 30]", "NF-κB", "=", 5.98),
    ("CC(=O)Nc1ccc(NC(=O)c2cc(-c3ccc(F)cc3)cnc2N)cc1 [Compound 38]", "NF-κB", "=", 6.08),
    ("CCc1ccc(-c2cc(C(=O)Nc3ccc(NC(C)=O)cc3)ccn2)cc1 [Compound 24]", "NF-κB", "=", 6.12),
    ("CC(=O)Nc1ccc(NC(=O)c2cc(-c3cccc(C(F)(F)F)c3)cnc2N)cc1 [Compound 41]", "NF-κB", "=", 6.51),
    ("CC(=O)Nc1ccc(NC(=O)c2cc(-c3ccc(C)cc3)cnc2N)cc1 [Compound 28]", "NF-κB", "<", 5.70),
    ("CCc1ccc(-c2cc(C(=O)Nc3ccc(NC(C)=O)cc3)cnc2N)cc1 [Compound 27]", "NF-κB", "=", 5.95),
    ("CCc1ccc(-c2cnc(N)c(C(=O)Nc3ccc(N)cc3)c2)cc1 [Compound 10]", "NF-κB", "=", 6.38),
    ("CCc1ccc(-c2cnc(N)c(C(=O)Nc3ccc(F)cc3)c2)cc1 [Compound 16]", "NF-κB", "<", 5.70),
    ("CC(=O)Nc1ccc(NC(=O)c2cc(-c3ccc(C=O)c(C)c3)cnc2N)cc1 [Compound 49]", "NF-κB", "<", 5.70),
    ("COc1ccccc1-c1cnc(N)c(C(=O)Nc2ccc(NC(C)=O)cc2)c1 [Compound 33]", "NF-κB", "<", 5.70),
    ("CCc1ccc(-c2cnc(N)c(C(=O)Nc3ccc(C(C)C)cc3)c2)cc1 [Compound 21]", "NF-κB", "<", 5.70),
    ("CCc1ccc(-c2cnc(N)c(C(=O)Nc3ccc(NC(C)=O)cc3)c2)cc1 [Compound 13]", "NF-κB", "=", 6.15),
    ("CCc1ccc(NC(=O)c2cc(-c3ccc(CC)cc3)cnc2N)cc1 [Compound 19]", "NF-κB", "<", 5.70),
    ("CC(=O)Nc1ccc(NC(=O)c2cc(-c3ccccc3C(F)(F)F)cnc2N)cc1 [Compound 42]", "NF-κB", "=", 6.00),
    ("COc1ccc(-c2cnc(N)c(C(=O)Nc3ccc(NC(C)=O)cc3)c2)c(OC)c1OC [Compound 34]", "NF-κB", "<", 5.70),
    ("CC(=O)Nc1ccc(NC(=O)c2cc(-c3cccc(O)c3)cnc2N)cc1 [Compound 44]", "NF-κB", "<", 5.70),
    ("CC(=O)Nc1ccc(NC(=O)c2cc(-c3cccc(C)c3)cnc2N)cc1 [Compound 29]", "NF-κB", "<", 5.70),
]

====

- Tested on: NF-κB
- Assay protocol: NF-κB transcriptional activity dual-luciferase reporter assay, TNF-α stimulated
- Assay type: cell-based
- Measurement conditions: Homo sapiens, HEK-293T, HEK293T cells transfected with NF-κB reporter plasmid, stimulated by TNF-α
- Protocol: 4.5. NF-κB transcriptional activity assay HEK293T cells were seeded into 96 well plate at a density of 1×10^5 cells per well. […] Then incubated for another hour, TNF-α was added for a final concentration at 10 ng/mL.12 hours later, the cell lysate was collected and the RLU was measured by microplate reader. […]
pIC50: −log10 of the molar value.

# Molecule, pIC50
measured = [
    ("CC(=O)Nc1ccc(NC(=O)c2cc(-c3ccc(C#N)cc3)cnc2N)cc1 [Compound 46]", "< 5.70"),
    ("CC(=O)Nc1ccc(NC(=O)c2cc(-c3ccc(N)cc3Cl)cnc2N)cc1 [Compound 51]", 6.76),
    ("CC(=O)Nc1ccc(NC(=O)c2cc(-c3ccc(O)cc3)cnc2N)cc1 [Compound 43]", "< 5.70"),
    ("CC(=O)Nc1ccc(NC(=O)c2cc(-c3ccc(C(F)(F)F)cc3)cnc2N)cc1 [Compound 40]", "< 5.70"),
    ("CC(=O)Nc1ccc(NC(=O)c2cc(-c3cccc(F)c3)cnc2N)cc1 [Compound 39]", "< 5.70"),
    ("CC(=O)Nc1ccc(NC(=O)c2cc(-c3ccccc3Cl)cnc2N)cc1 [Compound 37]", "< 5.70"),
    ("CCc1ccc(-c2cnc(N)c(C(=O)Nc3ccc(Cl)cc3)c2)cc1 [Compound 17]", "< 5.70"),
    ("CCc1ccc(-c2cnc(N)c(C(=O)Nc3ccccc3NC(C)=O)c2)cc1 [Compound 15]", 6.27),
    ("CCc1ccc(-c2cnc(N)c(C(=O)Nc3ccc(C)cc3)c2)cc1 [Compound 7]", "< 5.70"),
    ("CC(=O)Nc1ccc(NC(=O)c2cc(-c3ccccc3O)cnc2N)cc1 [Compound 45]", "< 5.70"),
    ("Cc1ccc(S(=O)(=O)/C=C/C#N)cc1 [Bay11-7082, reference compound]", 7.04),
    ("CC(=O)Nc1ccc(NC(=O)c2cc(-c3ccc(F)c(C)c3)cnc2N)cc1 [Compound 50]", 6.24),
    ("CCc1ccc(-c2ccnc(C(=O)Nc3ccc(NC(C)=O)cc3)c2)cc1 [Compound 26]", 5.71),
    ("CC(=O)Nc1ccc(NC(=O)c2cc(-c3cccc(Cl)c3)cnc2N)cc1 [Compound 36]", "< 5.70"),
    ("CC(=O)Nc1ccc(NC(=O)c2cc(-c3ccccc3C#N)cnc2N)cc1 [Compound 48]", "< 5.70"),
    ("CCc1ccc(-c2cccc(C(=O)Nc3ccc(NC(C)=O)cc3)c2)cc1 [Compound 23]", "< 5.70"),
    ("COc1ccc(-c2cnc(N)c(C(=O)Nc3ccc(NC(C)=O)cc3)c2)cc1 [Compound 31]", "< 5.70"),
    ("CC(=O)Nc1ccc(NC(=O)c2cc(-c3ccc(Cl)cc3)cnc2N)cc1 [Compound 35]", 6.69),
    ("CC(=O)Nc1ccc(NC(=O)c2cc(-c3cccc(C#N)c3)cnc2N)cc1 [Compound 47]", "< 5.70"),
    ("CCc1ccc(-c2cnc(N)c(C(=O)Nc3ccc(OC(F)(F)F)cc3)c2)cc1 [Compound 18]", "< 5.70"),
    ("CCc1ccc(-c2cnc(N)c(C(=O)Nc3ccc(OC)cc3)c2)cc1 [Compound 20]", "< 5.70"),
]

These measurements were taken from paper PMC10281321.
